- tested.target: DLL3 endogenously expressed on NCI-H82 cells (UniProt Q9NYJ7)
- Sequence (Q9NYJ7 27-618): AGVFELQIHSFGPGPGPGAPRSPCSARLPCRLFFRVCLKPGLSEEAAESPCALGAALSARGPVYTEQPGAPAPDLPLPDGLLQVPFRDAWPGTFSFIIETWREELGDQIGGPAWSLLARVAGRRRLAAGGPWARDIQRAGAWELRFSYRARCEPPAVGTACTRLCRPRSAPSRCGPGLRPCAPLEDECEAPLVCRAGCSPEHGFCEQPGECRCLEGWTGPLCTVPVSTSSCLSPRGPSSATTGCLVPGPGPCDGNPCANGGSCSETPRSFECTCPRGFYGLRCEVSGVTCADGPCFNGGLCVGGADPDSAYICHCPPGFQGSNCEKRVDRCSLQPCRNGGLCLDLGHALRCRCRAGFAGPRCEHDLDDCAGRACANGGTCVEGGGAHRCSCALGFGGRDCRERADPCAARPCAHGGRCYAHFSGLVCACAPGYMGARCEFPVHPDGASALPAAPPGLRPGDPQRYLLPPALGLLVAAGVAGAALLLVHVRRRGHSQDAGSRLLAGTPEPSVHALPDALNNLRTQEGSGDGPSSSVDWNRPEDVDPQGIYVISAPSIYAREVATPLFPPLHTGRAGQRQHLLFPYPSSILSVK
- test.protocol: FACS on NCI-H82 cells; antibody 20 nM
endpoint: MFI

Hab015VL5VH6a-hFc (scFv, part only; not given: scFv linker and human IgG1 Fc, V domains shown, not shown: another chain or arm of the molecule; a dimerising Fc or GST; small tags and cut ends) VL: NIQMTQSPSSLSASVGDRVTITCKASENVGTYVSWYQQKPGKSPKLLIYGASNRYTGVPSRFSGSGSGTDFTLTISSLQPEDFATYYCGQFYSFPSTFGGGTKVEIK VH: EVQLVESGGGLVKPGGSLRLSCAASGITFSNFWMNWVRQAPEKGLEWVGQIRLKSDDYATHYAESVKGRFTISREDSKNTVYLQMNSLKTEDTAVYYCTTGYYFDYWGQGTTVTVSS ... 937

Now take the following binder into account.
Just so you know, measured MFI for mab009 scFv-hFc (Fc fusion, part only; not given: Linker and human IgG1 Fc, not shown: a dimerising Fc or GST) chain, part: DIVMTQSPATLSVTPGDRVSLSCRASQTISDYLHWYQQRSHESPRLLIKYASQSISGIPSRFSGSGSGSDFTLSINSVEPEDVGVYYCQNGHSFPLTFGAGTKLELKEVQLQQSGTVLARPGASVKMSCKTSGYTFTSYWMHWVKQSPGQGLEWIGTIYPGNSDTRYNQKFKDKAYVTAVTSASTAYMELSSLTNEESAVYYCTRSYDYGDLDYWGQGTTLTVSS came out at 833

Data provenance: patent EP4786492A1
